target: T1, Dimeric Monkey Ang-2FD conjugated to human IgG1 (monkey (Macca fascicularis); human); test: SPR, captured Ab, RT
T1 construct: also called Monkey Ang-2FD-hFc
T1 sequence (chain, as listed by the source limits assumed): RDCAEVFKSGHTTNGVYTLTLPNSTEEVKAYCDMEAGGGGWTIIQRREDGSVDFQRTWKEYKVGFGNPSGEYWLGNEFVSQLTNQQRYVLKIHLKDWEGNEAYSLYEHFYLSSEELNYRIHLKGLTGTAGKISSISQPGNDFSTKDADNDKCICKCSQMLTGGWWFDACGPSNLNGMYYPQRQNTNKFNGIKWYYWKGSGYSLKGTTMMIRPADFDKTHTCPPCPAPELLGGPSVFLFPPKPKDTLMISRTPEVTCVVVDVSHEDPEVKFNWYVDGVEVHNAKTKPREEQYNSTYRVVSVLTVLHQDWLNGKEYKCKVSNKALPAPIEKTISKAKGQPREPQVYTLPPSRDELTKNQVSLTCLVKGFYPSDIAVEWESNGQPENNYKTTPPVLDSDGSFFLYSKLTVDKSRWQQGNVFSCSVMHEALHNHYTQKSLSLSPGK
# Kd values compiled below
measured.property: Kd (pM)

{"columns": ["binder", "measured.property", "readout.number"],
 "data": [
  ["H1H691P (antibody, V domains shown) VH: EVQLVESGGGLVQPGRSLRLSCAASGFTFDDYAMHWVRQAPGKGLEWVSGISWNSGDIGYADSVKGRFTISRDNAKNSLYLQMNSLRAQDTALYYCAKAYGDYYYFYGMDVWGQGTTVTVS VL: EIVLTQSPGTLSLSPGERATLSCRASQSVSSSYLAWYQQKPGQAPRLLIFSASSRATGIPDRFSGSGSGTDFTLTISRLEPEDFAVYYCQQYDNSLTFGGGTKVEIK", "Kd", 290],
  ["H1H704P (antibody, V domains shown) VH: QVQLVESGGDVVQPGRSLRLSCAASGFTFSSYGMHWVRQAPGKGLEWVAIIWYDGSNKYYADSVKGRFTISRDNSKNTLYLQMNSLRVEDTAVYSCARDFSISSRHFDYWGQGTLVTVSS VL: DIQMTQSPSSLSASVGDRVTITCRASQAINNYLAWFQQKPGKAPKSLIYATSNLQSGVPSQFSGSGSGTDYTLTISSLQPEDFATYYCQQYYIYPITFGQGTRLEIK", "Kd", 818],
  ["H1H693P (antibody, V domains shown) VH: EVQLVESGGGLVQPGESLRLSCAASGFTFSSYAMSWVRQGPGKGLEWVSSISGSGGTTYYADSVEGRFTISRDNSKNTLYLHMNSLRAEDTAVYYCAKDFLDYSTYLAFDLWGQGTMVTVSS VL: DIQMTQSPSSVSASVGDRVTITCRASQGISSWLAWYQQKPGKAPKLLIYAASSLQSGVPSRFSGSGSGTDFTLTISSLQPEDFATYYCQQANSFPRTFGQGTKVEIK", "Kd", 1170],
  ["H1H750N (antibody, V domains shown) VH: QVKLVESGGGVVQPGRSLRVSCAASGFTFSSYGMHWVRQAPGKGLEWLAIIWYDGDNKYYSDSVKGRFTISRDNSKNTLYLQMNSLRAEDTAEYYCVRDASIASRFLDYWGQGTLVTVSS VL: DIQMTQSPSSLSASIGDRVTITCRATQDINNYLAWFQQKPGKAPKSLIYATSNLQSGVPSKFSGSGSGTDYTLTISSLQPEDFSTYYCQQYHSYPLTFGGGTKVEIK", "Kd", 199],
  ["H2M744N (antibody, V domains shown) VH: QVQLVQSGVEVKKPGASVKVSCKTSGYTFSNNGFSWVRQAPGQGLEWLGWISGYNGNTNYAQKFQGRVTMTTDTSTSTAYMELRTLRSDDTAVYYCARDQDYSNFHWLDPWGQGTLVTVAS VL: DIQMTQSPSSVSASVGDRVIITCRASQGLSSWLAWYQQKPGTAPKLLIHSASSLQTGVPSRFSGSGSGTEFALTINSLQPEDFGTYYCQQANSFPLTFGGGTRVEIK", "Kd", 500]
]}
